B1: scFv; the commonest letter at each place (parent)
chain 1: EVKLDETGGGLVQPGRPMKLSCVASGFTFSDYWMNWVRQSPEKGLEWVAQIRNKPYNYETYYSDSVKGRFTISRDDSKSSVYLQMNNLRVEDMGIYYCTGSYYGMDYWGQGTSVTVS
chain 2: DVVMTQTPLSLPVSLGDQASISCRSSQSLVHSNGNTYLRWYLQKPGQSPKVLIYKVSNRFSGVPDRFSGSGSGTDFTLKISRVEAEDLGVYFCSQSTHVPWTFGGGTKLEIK

variants of: B1; assay: Kd (Tite-Seq); conditions: with fluorescein; format: scFv 4-4-20, heavy + light

{"change": "chain 1 T28V M34Y", "Kd": "0.00966 µM"}
{"change": "chain 1 S101W Y102Q W108A", "Kd": "≥ 10 µM"}
{"change": "chain 1 G100Q M105S", "Kd": "≥ 10 µM"}
{"change": "chain 1 M105N", "Kd": "0.0233 µM"}
{"change": "chain 1 W33F W36C", "Kd": "≥ 10 µM"}
{"change": "chain 1 S101A D106L", "Kd": "0.00166 µM"}
{"change": "chain 1 W33E N35C", "Kd": "≥ 10 µM"}
{"change": "chain 1 D31I", "Kd": "≥ 10 µM"}
{"change": "chain 1 G104F G109W", "Kd": "≥ 10 µM"}
{"change": "chain 1 S30E W33Q", "Kd": "≥ 10 µM"}
{"change": "chain 1 D31Y M34K", "Kd": "0.676 µM"}
{"change": "chain 1 S101W G104Y", "Kd": "≥ 10 µM"}
{"change": "chain 1 G100E M105D", "Kd": "≥ 10 µM"}
{"change": "chain 1 T28P V37S", "Kd": "0.000939 µM"}
{"change": "chain 1 S30H M34C", "Kd": "6.96 µM"}
{"change": "chain 1 Y107S", "Kd": "0.00239 µM"}
{"change": "chain 1 G100V", "Kd": "≥ 10 µM"}
{"change": "chain 1 F29I D31E Y32T", "Kd": "≥ 10 µM"}
{"change": "chain 1 M105L Y107I", "Kd": "2.34 µM"}
{"change": "chain 1 Y102S D106W", "Kd": "≥ 10 µM"}
{"change": "chain 1 Y102M Y103A Y107L", "Kd": "≥ 10 µM"}
{"change": "chain 1 F29Q S30D Y32A", "Kd": "≥ 10 µM"}
